- Tested on: Xanthomonas oryzae pv. oryzae (Xoo) PXO99A
- method: microbe, parasite or virus in culture
- test-settings: read-out: EC50 (mg/L)
Consider the following molecules; for each one, report its EC50.
Remember to follow the number with its unit.

Task: // lookup EC50 | system=Xanthomonas oryzae pv. oryzae (Xoo) PXO99A | key= C=C[C@]1(C)C[C@@H](OC(=O)CSc2ncc(OC)c(OS(=O)(=O)CCCC)n2)[C@]2(C)[C@H](C)CC[C@]3(CCC(=O)[C@H]32)[C@@H](C)[C@@H]1O [J21]
Result: 2.79 mg/L

Task: // lookup EC50 | system=Xanthomonas oryzae pv. oryzae (Xoo) PXO99A | key= C=C[C@]1(C)C[C@@H](OC(=O)CSc2ncc(OC)c(OS(=O)(=O)c3cccc(F)c3)n2)[C@]2(C)[C@H](C)CC[C@]3(CCC(=O)[C@H]32)[C@@H](C)[C@@H]1O [J10]
Result: 0.2 mg/L

Task: // lookup EC50 | system=Xanthomonas oryzae pv. oryzae (Xoo) PXO99A | key= C=C[C@]1(C)C[C@@H](OC(=O)CSc2ncc(OC)c(OS(=O)(=O)c3c(F)cccc3F)n2)[C@]2(C)[C@H](C)CC[C@]3(CCC(=O)[C@H]32)[C@@H](C)[C@@H]1O [J4]
Result: 0.34 mg/L

Task: // lookup EC50 | system=Xanthomonas oryzae pv. oryzae (Xoo) PXO99A | key= C=C[C@]1(C)C[C@@H](OC(=O)CSc2ncc(OC)c(OS(=O)(=O)c3cccc(Cl)c3F)n2)[C@]2(C)[C@H](C)CC[C@]3(CCC(=O)[C@H]32)[C@@H](C)[C@@H]1O [J12]
Result: 0.26 mg/L

Task: // lookup EC50 | system=Xanthomonas oryzae pv. oryzae (Xoo) PXO99A | key= C=C[C@]1(C)C[C@@H](OC(=O)CSc2ncc(OC)c(OS(=O)(=O)c3c(F)c(F)c(F)c(F)c3F)n2)[C@]2(C)[C@H](C)CC[C@]3(CCC(=O)[C@H]32)[C@@H](C)[C@@H]1O [J5]
Result: 0.77 mg/L

Task: // lookup EC50 | system=Xanthomonas oryzae pv. oryzae (Xoo) PXO99A | key= C=C[C@]1(C)C[C@@H](OC(=O)CSc2ncc(OC)c(OS(=O)(=O)c3c(C)c(C)cc(C)c3C)n2)[C@]2(C)[C@H](C)CC[C@]3(CCC(=O)[C@H]32)[C@@H](C)[C@@H]1O [J20]
Result: 0.35 mg/L

Task: // lookup EC50 | system=Xanthomonas oryzae pv. oryzae (Xoo) PXO99A | key= C=C[C@]1(C)C[C@@H](OC(=O)CSc2ncc(OC)c(OS(=O)(=O)c3ccc(C)cc3)n2)[C@]2(C)[C@H](C)CC[C@]3(CCC(=O)[C@H]32)[C@@H](C)[C@@H]1O [J2]
Result: 0.26 mg/L

Task: // lookup EC50 | system=Xanthomonas oryzae pv. oryzae (Xoo) PXO99A | key= C=C[C@]1(C)C[C@@H](OC(=O)CSc2ncc(OC)c(OS(=O)(=O)c3ccc(Cl)cc3)n2)[C@]2(C)[C@H](C)CC[C@]3(CCC(=O)[C@H]32)[C@@H](C)[C@@H]1O [J22]
Result: 0.34 mg/L

Task: // lookup EC50 | system=Xanthomonas oryzae pv. oryzae (Xoo) PXO99A | key= C=C[C@]1(C)C[C@@H](OC(=O)CSc2ncc(OC)c(O)n2)[C@]2(C)[C@H](C)CC[C@]3(CCC(=O)[C@H]32)[C@@H](C)[C@@H]1O [J9]
Result: 0.12 mg/L

Task: // lookup EC50 | system=Xanthomonas oryzae pv. oryzae (Xoo) PXO99A | key= C=C[C@]1(C)C[C@@H](OC(=O)CSc2ncc(OC)c(OS(=O)(=O)c3ccc(C(F)(F)F)cc3)n2)[C@]2(C)[C@H](C)CC[C@]3(CCC(=O)[C@H]32)[C@@H](C)[C@@H]1O [J3]
Result: 0.81 mg/L

Task: // lookup EC50 | system=Xanthomonas oryzae pv. oryzae (Xoo) PXO99A | key= C=C[C@]1(C)C[C@@H](OC(=O)CSc2ncc(OC)c(OS(=O)(=O)c3ccc(CC)cc3)n2)[C@]2(C)[C@H](C)CC[C@]3(CCC(=O)[C@H]32)[C@@H](C)[C@@H]1O [J23]
Result: 0.58 mg/L

Task: // lookup EC50 | system=Xanthomonas oryzae pv. oryzae (Xoo) PXO99A | key= C=C[C@]1(C)C[C@@H](OC(=O)CSc2ncc(OC)c(OS(=O)(=O)c3c(C)c(C)c(C)c(C)c3C)n2)[C@]2(C)[C@H](C)CC[C@]3(CCC(=O)[C@H]32)[C@@H](C)[C@@H]1O [J6]
Result: 0.33 mg/L

Task: // lookup EC50 | system=Xanthomonas oryzae pv. oryzae (Xoo) PXO99A | key= C=C[C@]1(C)C[C@@H](OC(=O)CSc2ncc(OC)c(OS(=O)(=O)CC)n2)[C@]2(C)[C@H](C)CC[C@]3(CCC(=O)[C@H]32)[C@@H](C)[C@@H]1O [J1]
Result: 0.41 mg/L

Task: // lookup EC50 | system=Xanthomonas oryzae pv. oryzae (Xoo) PXO99A | key= C=C[C@]1(C)C[C@@H](OC(=O)CSc2ncc(OC)c(OS(=O)(=O)c3ccc(C#N)cc3)n2)[C@]2(C)[C@H](C)CC[C@]3(CCC(=O)[C@H]32)[C@@H](C)[C@@H]1O [J18]
Result: 0.29 mg/L

Task: // lookup EC50 | system=Xanthomonas oryzae pv. oryzae (Xoo) PXO99A | key= C=C[C@]1(C)C[C@@H](OC(=O)CSc2ncc(OC)c(OS(=O)(=O)c3ccc(OC(F)(F)F)cc3)n2)[C@]2(C)[C@H](C)CC[C@]3(CCC(=O)[C@H]32)[C@@H](C)[C@@H]1O [J24]
Result: 0.26 mg/L
